# study target: CDK1/Cyclin B1 (Homo sapiens, UniProt P06493)
# Sequence (P06493 whole entry): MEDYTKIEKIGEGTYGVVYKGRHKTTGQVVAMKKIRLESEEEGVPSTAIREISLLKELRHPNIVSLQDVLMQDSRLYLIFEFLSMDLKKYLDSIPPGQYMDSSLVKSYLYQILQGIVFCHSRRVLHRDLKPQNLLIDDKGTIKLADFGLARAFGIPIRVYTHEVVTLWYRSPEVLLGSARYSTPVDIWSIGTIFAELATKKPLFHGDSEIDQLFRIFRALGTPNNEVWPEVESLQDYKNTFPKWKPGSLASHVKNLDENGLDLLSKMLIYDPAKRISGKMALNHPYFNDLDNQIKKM
# Sequence (P14635 whole entry partner): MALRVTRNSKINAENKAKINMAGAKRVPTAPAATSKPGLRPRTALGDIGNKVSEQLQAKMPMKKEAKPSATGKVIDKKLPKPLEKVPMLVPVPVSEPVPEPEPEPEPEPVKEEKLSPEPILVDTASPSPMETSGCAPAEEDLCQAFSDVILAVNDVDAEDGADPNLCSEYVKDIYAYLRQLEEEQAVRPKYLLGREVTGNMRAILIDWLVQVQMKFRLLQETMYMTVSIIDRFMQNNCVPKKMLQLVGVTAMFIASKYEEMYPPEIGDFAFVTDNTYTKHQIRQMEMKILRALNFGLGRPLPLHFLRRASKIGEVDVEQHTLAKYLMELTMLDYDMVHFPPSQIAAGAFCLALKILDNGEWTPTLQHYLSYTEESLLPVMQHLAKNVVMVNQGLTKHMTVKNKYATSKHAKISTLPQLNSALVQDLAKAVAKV
# experiment notes: CDK1/Cyclin B1 Biochemical Assay (TR-FRET), 0.015 mM ATP
# condition parameters: 0.15 μM Rb (Ser780)-biotin substrate, pH7.0, 60 min preincubation, 120 min reaction, room temperature
# Method: CDK2/Cyclin E1 and CDK1/Cyclin B1 Biochemical Assays Compounds disclosed herein were tested for inhibition of CDK2/Cyclin E1 or CDK1/Cyclin B1 kinase in an assay based on the time-resolved fluorescence-resonance energy transfer (TR-FRET) methodology. […] Plates were incubated at room temperature for 60 minutes, and the TR-FRET signals (ex337 nm, em665 nm/620 nm) were recorded on a PHERAstar FSX plate reader (BMG Labtech). […]
reported endpoint: IC50
# output: numeric value plus its unit

These recorded examples may help you get a feel for the data.
Form field: IC50 recorded for CC(=O)N1CCC(N2Cc3c(ccc(Nc4cc([C@@H]5CC[C@H](OC(=O)NC(C)C)C5)[nH]n4)c3F)S2(=O)=O)C1 (relative stereo) with CDK1/Cyclin B1 (Homo sapiens, UniProt P06493) (enter value)
767 nM

Form field: IC50 recorded for CC1(NC(=O)O[C@H]2CC[C@@H](c3cc(Nc4ccc5c(c4)CS(=O)(=O)N5)n[nH]3)C2)CCOC1 (relative stereo) with CDK1/Cyclin B1 (Homo sapiens, UniProt P06493) (enter value)
10 nM

// next item, IC50 requested
Form field: IC50 recorded for Cc1c(Nc2cc([C@@H]3CC[C@H](OC(=O)NC(C)C)C3)[nH]n2)ccc2c1CS(=O)(=O)N2 (relative stereo) with CDK1/Cyclin B1 (Homo sapiens, UniProt P06493) (enter value)
28 nM

* * *

# study target: CDK1/Cyclin B1 (Homo sapiens, UniProt P06493)
# experiment notes: CDK1/Cyclin B1 Biochemical Assay (TR-FRET), 0.015 mM ATP
# condition parameters: 0.15 μM Rb (Ser780)-biotin substrate, pH7.0, 60 min preincubation, 120 min reaction, room temperature
# Description: CDK2/Cyclin E1 and CDK1/Cyclin B1 Biochemical Assays Compounds disclosed herein were tested for inhibition of CDK2/Cyclin E1 or CDK1/Cyclin B1 kinase in an assay based on the time-resolved fluorescence-resonance energy transfer (TR-FRET) methodology. […] Plates were incubated at room temperature for 60 minutes, and the TR-FRET signals (ex337 nm, em665 nm/620 nm) were recorded on a PHERAstar FSX plate reader (BMG Labtech). […]
reported endpoint: pIC50
# reply with the number alone; pIC50 is -log10 of concentration in mol/L

These recorded examples may help you get a feel for the data.
Form field: pIC50 recorded for CC(C)NC(=O)O[C@H]1CC[C@@H](c2cc(Nc3cc(F)c4c(c3)NS(=O)(=O)C4)n[nH]2)C1 (relative stereo) with CDK1/Cyclin B1 (Homo sapiens, UniProt P06493) (enter value)
6.80

Form field: pIC50 recorded for CC1(NC(=O)O[C@H]2CC[C@@H](c3cc(Nc4ccc5c(c4F)CS(=O)(=O)N5CC(F)(F)F)n[nH]3)C2)CCOC1 (relative stereo) with CDK1/Cyclin B1 (Homo sapiens, UniProt P06493) (enter value)
6.89

Form field: pIC50 recorded for CC(C)NC(=O)O[C@H]1CC[C@@H](c2cc(Nc3cc4c(cc3F)S(=O)(=O)NC4)n[nH]2)C1 (single isomer, unassigned) [Example 12b] with CDK1/Cyclin B1 (Homo sapiens, UniProt P06493) (enter value)
6.44

Form field: pIC50 recorded for CC(C)NC(=O)O[C@H]1CC[C@@H](c2cc(Nc3ccc4c(c3F)CN(C(C)C3CCOC3)S4(=O)=O)n[nH]2)C1 (relative stereo) with CDK1/Cyclin B1 (Homo sapiens, UniProt P06493) (enter value)
6.39

Form field: pIC50 recorded for CC1(NC(=O)O[C@H]2CC[C@@H](c3cc(Nc4ccc5c(c4F)CN(C4CC4)S5(=O)=O)n[nH]3)C2)CCOC1 (relative stereo) with CDK1/Cyclin B1 (Homo sapiens, UniProt P06493) (enter value)
6.66

// next item, pIC50 requested
Form field: pIC50 recorded for CC(C)NC(=O)O[C@H]1CC[C@@H](c2cc(Nc3ccc4c(c3F)CN(C3CN(Cc5ccccc5)C3)S4(=O)=O)n[nH]2)C1 (relative stereo) with CDK1/Cyclin B1 (Homo sapiens, UniProt P06493) (enter value)
5.81
